Just for reference, ChEMBL document CHEMBL3433997 is where these values come from.

biological target: Glucose transporter (Leishmania mexicana); assay: ST_JUDE_LEISH: Cytotoxicity at 2uM final concentration against transgenic Leishmania Mexicana promastigotes LmGT2 that are glucose transport deficient and complemented with the L. Mexicana glucose transporter 2. Activity is measured by DNA content using SYBR green in vitro; type: functional
measured endpoint: inhibition (%)
A number alone suffices; assume %.

# compound, unit annotation, inhibition
data = [
    ("N=C(N)NN=Cc1cc2ccccc2c2ccccc12", "%", 4.16),
    ("Cc1sc2nc(CSc3ccccc3)nc(N3CCN(CC(=O)N4CCCC4)CC3)c2c1C", "%", 1.41),
    ("O=[N+]([O-])c1ccc(C(O)CNCCc2ccccc2)cc1OCc1ccccc1 (stereo not given)", "%", 15),
]

Supply reported inhibition belonging to this compound: Fc1ccc2c(NN=Cc3ccc(Cl)cc3)ccnc2c1
6.76

Supply reported inhibition belonging to this compound: CCOc1ccc(CCCON2C(=N)N=C(N)NC2(C)C)cc1
9.73

Supply reported inhibition belonging to this compound: Cc1cc(CN2CCC(N3CC(c4ccccc4)(c4ccccc4)OC3=O)C2)ccc1O (stereo not given)
8.06

====

biological target: Hexose transporter 1 (Plasmodium falciparum) (UniProt O97467); assay: ST_JUDE_LEISH: Cytotoxicity at 2uM final concentration against transgenic Leishmania Mexicana promastigotes LmPfHT that are glucose transport deficient and complemented with the Plasmodium falciparum hexose transporter. Activity is measured by DNA content using SYBR green in vitro; format: functional
Assign class by inhibition: not lower than 3% means true; lower than 3% means false.

# compound, assigned category
measured = [
    ("O=C(Nc1ccc(-c2cncc(NCCCN3CCCC3)c2)cc1)c1ccccc1", "false"),
    ("CC(=O)Nc1cccc(CNCc2ccc(-c3cnc(N4CCCC(C)(C)C4)nc3)cc2)c1", "true"),
    ("O=C(NCC1CCN(Cc2cccc(C(F)(F)F)c2)C1)c1cc(-c2cccc(Cl)c2)cs1 (stereo not given)", "false"),
    ("CN1CCN(CC(=O)Nc2ccc(-c3ccc(-c4nc5ccccc5[nH]4)s3)cc2)CC1", "true"),
    ("Cc1ccc(Cc2c(N)nc3nc(N)nc(N)c3c2C)cc1", "true"),
]

hey, is inhibition for this one >= 3%? COc1ccc(-c2onc(C(F)(F)F)c2-c2cc3ccccc3o2)c(O)c1
false

hey, is inhibition for this one >= 3%? CC(=O)Nc1cccc(CNCc2ccc(-c3cnc(N4CCCC(c5ccccc5)C4)nc3)cc2)c1 (stereo not given)
false

hey, is inhibition for this one >= 3%? O=C(CSc1nnc(O)n1Cc1ccccc1)Nc1ccccc1-c1ccccc1
true

hey, is inhibition for this one >= 3%? CCc1cn(C)c2c(N3CCCC3=O)cc(C(=O)N[C@@H](Cc3ccccc3)[C@H](O)CNC3CCCCC3)cc12
true

hey, is inhibition for this one >= 3%? COc1ccc(Br)cc1/C=C/C(=O)Nc1cccc(C2CCCN(C)C2)c1 (stereo not given)
true

====

target: Solute carrier family 2, facilitated glucose transporter member 1 (Homo sapiens); test: ST_JUDE_LEISH: Cytotoxicity at 2uM final concentration against transgenic Leishmania Mexicana promastigotes LmGLUT1 that are glucose transport deficient and complemented with the human glucose transporter GLUT1. Activity is measured by DNA content using SYBR green in vitro; assay type: functional
Attribute: inhibition
A number alone suffices; assume %.

The cases that follow already have their inhibition on record.
# molecule, unit annotation, inhibition
measured = [
    ("O=C(C=Cc1ccc(Cl)c(Cl)c1)NCCCCCN1CCC(CCCNC(=O)c2ccc3c(c2)OCO3)CC1", "%", 4.5),
    ("CCCC(C)Nc1nc(C)cc(N[C@@H](CC(C)C)C(=O)NCCOc2ccccc2)n1 (some centres undefined)", "%", 21.4),
    ("CCOc1cc(C(=O)NCCN(CC)c2cccc(C)c2)ccc1-c1nc2cc(Cl)ccc2[nH]1", "%", 3.14),
]

Next, consider the following molecule.
Supply reported inhibition belonging to this molecule: Cc1nn(CCOC(=O)NC(NCC2COc3ccccc3O2)C(Cl)(Cl)Cl)cc1[N+](=O)[O-] (centres undefined)
0.33

====

biological target: Hexose transporter 1 (Plasmodium falciparum) (UniProt O97467); test: ST_JUDE_LEISH: Cytotoxicity at 2uM final concentration against transgenic Leishmania Mexicana promastigotes LmPfHT that are glucose transport deficient and complemented with the Plasmodium falciparum hexose transporter. Activity is measured by DNA content using SYBR green in vitro; format: functional
measured endpoint: inhibition (%)
A number alone suffices; assume %.

The cases that follow already have their inhibition on record.
# compound, inhibition [%]
data = [
    ("COc1ccc2nccc(N/N=C/c3ccccc3[N+](=O)[O-])c2c1", 4.3),
    ("COc1ccc2c(NN=Cc3cccc(F)c3)ccnc2c1", 2.22),
    ("Cn1c(N)cc(-c2cccc(I)c2)c2c(=O)nc(N)nc1-2", 4.5),
    ("CC(C)CNCc1ccc(-c2cccc(CN(C(=O)NCCc3ccccc3)C3CCN(Cc4ccccc4)CC3)c2)cc1", 11),
]

Next, consider the following compound.
Supply reported inhibition belonging to this compound: CCOC(=O)C1=C(C)N=c2sc(=Cc3ccccc3O)c(=O)n2C1c1ccc(OC)c2ccccc12 (stereo not given)
-0.06

====

Attribute: inhibition
molecular target: Glucose transporter (Leishmania mexicana); assay: ST_JUDE_LEISH: Cytotoxicity at 2uM final concentration against transgenic Leishmania Mexicana promastigotes LmGT2 that are glucose transport deficient and complemented with the L. Mexicana glucose transporter 2. Activity is measured by DNA content using SYBR green in vitro; type: functional
A number alone suffices; assume %.

The cases that follow already have their inhibition on record.
# molecule, inhibition [%]
records = [
    ("COc1ccc(C(C(=O)NC2CCN(C[C@H](O)c3ccnc4ccc(OC)cc34)CC2)N2CCc3ccccc3C2)cc1 (some centres undefined)", 2.69),
    ("O=C(C=Cc1ccc(Cl)c(Cl)c1)NCCCCCN1CCCC(CCCNS(=O)(=O)c2ccc(Br)cc2)C1 (centres undefined)", 2.95),
    ("Cc1cc(=O)c(-c2ccc(Oc3cccc(Cl)c3)cc2)c(C)[nH]1", 2.24),
]

Supply reported inhibition belonging to this molecule: CCCCCCCN(Cc1ccc(OC(C)(C)C(=O)OCC)cc1)C(=O)Nc1ccccc1OC(F)(F)F
1.43

Supply reported inhibition belonging to this molecule: COc1cccc(C2(c3cccc(OC)c3)N=C(N)N(CCCc3ccccc3)C2=O)c1
-2.44

Supply reported inhibition belonging to this molecule: COc1cccc(-c2cccc(-c3ccc(NC(=O)c4ccc([N+](=O)[O-])o4)cc3)n2)c1
23.3

Supply reported inhibition belonging to this molecule: O=C(Nc1cccc(-c2nn3ccccc3c2-c2ccnc(Nc3ccc(NCCCN4CCOCC4)c(F)c3)n2)c1)c1c(F)cccc1F
5.22

Supply reported inhibition belonging to this molecule: CCCC(=O)NC(NC(=S)Nc1ccc([N+](=O)[O-])cc1)C(Cl)(Cl)Cl (centres undefined)
-0.01

Supply reported inhibition belonging to this molecule: CCOC(=O)C(=CNc1ccc(Cc2cnc(N)nc2N)cc1CC)C(=O)OCC
-3.12

====

Attribute: inhibition
target: Hexose transporter 1 (Plasmodium falciparum) (UniProt O97467); assay: ST_JUDE_LEISH: Cytotoxicity at 2uM final concentration against transgenic Leishmania Mexicana promastigotes LmPfHT that are glucose transport deficient and complemented with the Plasmodium falciparum hexose transporter. Activity is measured by DNA content using SYBR green in vitro; format: functional
A number alone suffices; assume %.

The cases that follow already have their inhibition on record.
# compound, measured endpoint, test value
records = [
    ("CC(C)C(C(=O)n1ncc2c3c(N)nc(N)nc3ccc21)C(C)C", "inhibition", 86.9),
    ("CC(C)CCN1CCCN(Cc2cccc(NC(=O)c3ccc(-c4ccccc4)cc3)c2)CC1", "inhibition", 0.14),
    ("Cc1cc(OCC2CCN(c3ncc(C(=O)NC4CC4)cc3Cl)CC2)ccc1F", "inhibition", 1.07),
    ("Cc1cc2ncc(C(N)=O)c(Nc3ccc(N4CCOCC4)cc3)c2cc1S(C)(=O)=O", "inhibition", 3.83),
    ("COc1cccc(OC)c1OCCCOc1c(C)nc(N)nc1N", "inhibition", 1.79),
    ("CCOc1cc(C2C(C(=O)OC(C)C)=C(C)NC3=C2C(=O)CC(c2ccc(Cl)cc2)C3)ccc1OC(C)=O (stereo not given)", "inhibition", 6.64),
]

Supply reported inhibition belonging to this compound: CNC(=O)c1ccccc1Nc1cc(Nc2cc(OC)ccn2)ncc1Cl
7.66

Supply reported inhibition belonging to this compound: CCN(CCCN1CCCCC1)c1cc(C)nc(Nc2ccc(C)c(Cl)c2)n1
2.33

Supply reported inhibition belonging to this compound: Cn1c(N)c(C(=O)CSc2ncc(-c3ccc(F)cc3)n2Cc2ccccc2)c(=O)n(C)c1=O
1.62

====

molecular target: Glucose transporter (Leishmania mexicana) (UniProt O61059); assay: ST_JUDE_LEISH: Cytotoxicity at 2uM final concentration against transgenic Leishmania Mexicana promastigotes LmGT2 that are glucose transport deficient and complemented with the L. Mexicana glucose transporter 2. Activity is measured by DNA content using SYBR green in vitro; format: functional
measured endpoint: inhibition (%)
A number alone suffices; assume %.

# compound, target entity, inhibition / %
records = [
    ("CC(=O)Nc1ncc(C(=O)Nc2cccc(-c3ccc(-c4nc5cc(F)ccc5[nH]4)cc3)c2)s1", "Glucose transporter (Leishmania mexicana) (UniProt O61059)", 2.62),
]

Look up and report measured inhibition (Glucose transporter (Leishmania mexicana) (UniProt O61059)) for the following compound: Cc1cc(F)ccc1-c1nc(NCCCN2CCCC2=O)nc2c1ccc(=O)n2-c1c(F)cccc1F
11.1

Look up and report measured inhibition (Glucose transporter (Leishmania mexicana) (UniProt O61059)) for the following compound: O=C(/C=C/c1ccc(Cl)c(Cl)c1)N1CCC(CN2CCC(c3c[nH]c4ncccc34)CC2)CC1
2.38

Look up and report measured inhibition (Glucose transporter (Leishmania mexicana) (UniProt O61059)) for the following compound: COc1ccc(Nc2nccc(-c3c(-c4cccc(NC(=O)c5c(F)cccc5F)c4)nn4ccccc34)n2)cc1Cl
-0.51

Look up and report measured inhibition (Glucose transporter (Leishmania mexicana) (UniProt O61059)) for the following compound: CCC[C@@H]([C@@H](CC1CCCCC1)C(=O)N[C@H](C(=O)Nc1nccc(N)n1)C(C)(C)C)N(O)C=O
4.24

Look up and report measured inhibition (Glucose transporter (Leishmania mexicana) (UniProt O61059)) for the following compound: COc1ccc(C#Cc2ccc(-c3c(C)[nH]c(C)c(Cl)c3=O)cc2)cc1
4.03

Look up and report measured inhibition (Glucose transporter (Leishmania mexicana) (UniProt O61059)) for the following compound: c1ccc2c(c1)CN(Cc1ccsc1)CC1(CCN(Cc3c[nH]c4cnccc34)CC1)O2
6.86

Look up and report measured inhibition (Glucose transporter (Leishmania mexicana) (UniProt O61059)) for the following compound: CCN(CC)CCN(Cc1ccc(-c2ccc(C(F)(F)F)cc2)cc1)C(=O)c1ccc(-c2ccc(NC(=O)OC)cc2C)cc1
10.1

Look up and report measured inhibition (Glucose transporter (Leishmania mexicana) (UniProt O61059)) for the following compound: CN1CCCC(CN2CCN(Cc3ccc(-c4ccc(-c5nc6ccccc6[nH]5)cc4)cc3)CC2)C1 (configuration not stated)
7.8
